Assignment: determine reported viability, T/C for the given compounds.
Tested on: 922993-354-T-J3-PDC complex spheroids, viability
MEASUREMENT_NOTES: Anticancer human tumor 922993-354-T-J3-PDC patient-derived endometrial carcinoma cell line growth inhibition [GQUAD]
CONDITIONS: second compound 0.316 µM; first compound 0.000999 µM; stronger effect = lower value
One number for each entry, in %.

Illustrative cases are given below, each with its answer.
{"COMPOUND": "Cn1ncnc1[C@H]1c2n[nH]c(=O)c3cc(F)cc(c23)N[C@@H]1c1ccc(F)cc1 + CN(C)c1ccc(Nc2c3ccc(NC(=O)CCN4CCCC4)cc3nc3cc(NC(=O)CCN4CCCC4)ccc23)cc1", "MEASUREMENT_UNIT": "%", "viability, T/C": 97.4}
{"COMPOUND": "CC[C@@]1(O)C(=O)OCc2c1cc1n(c2=O)Cc2cc3c(CN(C)C)c(O)ccc3nc2-1 + CN(C)c1ccc(Nc2c3ccc(NC(=O)CCN4CCCC4)cc3nc3cc(NC(=O)CCN4CCCC4)ccc23)cc1", "MEASUREMENT_UNIT": "%", "viability, T/C": 90.5}
{"COMPOUND": "CCc1c2c(nc3ccc(O)cc13)-c1cc3c(c(=O)n1C2)COC(=O)[C@]3(O)CC + CN(C)c1ccc(Nc2c3ccc(NC(=O)CCN4CCCC4)cc3nc3cc(NC(=O)CCN4CCCC4)ccc23)cc1", "MEASUREMENT_UNIT": "%", "viability, T/C": 90.6}

For each of the compounds below, state viability, T/C.
1. Cc1[nH]c2ccccc2c1CCNCc1ccc(/C=C/C(=O)NO)cc1 + CN(C)c1ccc(Nc2c3ccc(NC(=O)CCN4CCCC4)cc3nc3cc(NC(=O)CCN4CCCC4)ccc23)cc1
2. Cc1[nH]c2ccccc2c1CCNCc1ccc(/C=C/C(=O)NO)cc1 + Cc1cnc(CNC(=O)c2c(=O)c3ccc(N4CCCN(C)CC4)nc3n3c2sc2ccccc23)cn1

Response:
1: 94.5; 2: 54.2

###

Assignment: determine reported viability, T/C for the given compounds.
System: 922993-354-T-J3-PDC complex spheroids, viability
MEASUREMENT_NOTES: Anticancer human tumor 922993-354-T-J3-PDC cell line growth inhibition [GQUAD];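 further: spheroids exposed to compounds for seven days; 100% = DMSO vehicle control viability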
CONDITIONS: second compound 0.316 µM; first compound 10 µM; stronger effect = lower value

{"COMPOUND": "C=CCn1c(=O)c2cnc(Nc3ccc(N4CCN(C)CC4)cc3)nc2n1-c1cccc(C(C)(C)O)n1 + CN(C)c1ccc(Nc2c3ccc(NC(=O)CCN4CCCC4)cc3nc3cc(NC(=O)CCN4CCCC4)ccc23)cc1", "viability, T/C": "16.9%"}
{"COMPOUND": "COc1cc(C2c3cc4c(cc3C(OC3OC5COC(C)OC5C(O)C3O)C3COC(=O)C23)OCO4)cc(OC)c1O (configuration not stated) + Cc1cnc(CNC(=O)c2c(=O)c3ccc(N4CCCN(C)CC4)nc3n3c2sc2ccccc23)cn1", "viability, T/C": "34.3%"}
{"COMPOUND": "CC(C)(O)C1CCC(Nc2ccc3ncc(-c4cccc(C(F)(F)F)c4)n3n2)CC1 (configuration not stated) + CN(C)c1ccc(Nc2c3ccc(NC(=O)CCN4CCCC4)cc3nc3cc(NC(=O)CCN4CCCC4)ccc23)cc1", "viability, T/C": "63.3%"}

For each of the compounds below, note its viability, T/C.
1. CC(C)(O)C1CCC(Nc2ccc3ncc(-c4cccc(C(F)(F)F)c4)n3n2)CC1 (configuration not stated) + Cc1cnc(CNC(=O)c2c(=O)c3ccc(N4CCCN(C)CC4)nc3n3c2sc2ccccc23)cn1
2. O=c1[nH]cc(F)c(=O)[nH]1 + Cc1cnc(CNC(=O)c2c(=O)c3ccc(N4CCCN(C)CC4)nc3n3c2sc2ccccc23)cn1
3. C=CCn1c(=O)c2cnc(Nc3ccc(N4CCN(C)CC4)cc3)nc2n1-c1cccc(C(C)(C)O)n1 + Cc1[nH]c2ccc(F)cc2c1-c1nc2c3cccnc3c3ncccc3c2[nH]1
4. CC(=O)O[C@H]1C(=O)[C@@]2(C)[C@H]([C@H](OC(=O)c3ccccc3)[C@]3(O)C[C@H](OC(=O)[C@H](O)[C@@H](NC(=O)c4ccccc4)c4ccccc4)C(C)=C1C3(C)C)[C@]1(OC(C)=O)CO[C@@H]1C[C@@H]2O + Cc1cnc(CNC(=O)c2c(=O)c3ccc(N4CCCN(C)CC4)nc3n3c2sc2ccccc23)cn1
5. COc1ncnc(C2CC2)c1-c1ncc2cnn(Cc3ccc(-c4nc(C(F)(F)F)cn4C(C)C)cc3)c2n1 + CN(C)c1ccc(Nc2c3ccc(NC(=O)CCN4CCCC4)cc3nc3cc(NC(=O)CCN4CCCC4)ccc23)cc1
6. CC1COCCN1c1cc(C2(S(C)(=N)=O)CC2)nc(-c2ccnc3[nH]ccc23)n1 (configuration not stated) + Cc1cnc(CNC(=O)c2c(=O)c3ccc(N4CCCN(C)CC4)nc3n3c2sc2ccccc23)cn1
7. C#Cc1c(F)ccc2cc(O)cc(-c3ncc4c(N5CC6CCC(C5)N6)nc(OCC56CCCN5CC(F)C6)nc4c3F)c12 (configuration not stated) + CN(C)c1ccc(Nc2c3ccc(NC(=O)CCN4CCCC4)cc3nc3cc(NC(=O)CCN4CCCC4)ccc23)cc1
8. CCCS(=O)(=O)Nc1ccc(F)c(C(=O)c2c[nH]c3ncc(-c4ccc(Cl)cc4)cc23)c1F + CN(C)c1ccc(Nc2c3ccc(NC(=O)CCN4CCCC4)cc3nc3cc(NC(=O)CCN4CCCC4)ccc23)cc1

Response:
["58.2%", "49.3%", "14.7%", "53.3%", "74.2%", "39.2%", "76%", "68.1%"]

Prompt: Determine its reported viability, T/C: Cc1cccc(N(C)C(=O)C2C(O)CCN2c2nc(C)cc(C(F)(F)F)c2C#N)c1 (configuration not stated) + Cc1cnc(CNC(=O)c2c(=O)c3ccc(N4CCCN(C)CC4)nc3n3c2sc2ccccc23)cn1
Response: 47.1%
